- test: Mice iv PK
- conditionDescription: mouse, in vivo
quantity: clearance (mL/min/kg)

>>> df
                               recordsmiles  quantitativereadout
0  O=S1(=O)CCc2ccccc2N1Cc1ccc(-c2nnc(C(F)F)o2)cn1                 44.9

---

- test: Oral PK study with brain and sciatic nerve exposure
- Type: in vivo, mice
- conditionDescription: mouse, plasma; oral PK study, gavage
quantity: Cmax

                               recordsmiles     result
0  O=S1(=O)CCc2ccccc2N1Cc1ccc(-c2nnc(C(F)F)o2)cn1  456 ng/mL

---

- test: Oral PK study with brain and sciatic nerve exposure
- Type: in vivo, mice
- conditionDescription: mouse, sciatic nerve and plasma, oral; at 1 h; read-out: Sciatic nerve/plasma ratio
quantity: Kp at 1 h

                               recordsmiles  quantitativereadout
0  O=S1(=O)CCc2ccccc2N1Cc1ccc(-c2nnc(C(F)F)o2)cn1                  0.4
